Origin of the recorded values: the supplement of paper PMC11579375

test system: 13F2 (fetal-II hepatoblastoma organoid with high liver markers); test: area under the viability dose-response curve (AUC) (AUC (arbitrary units, max 500 = no viability loss)); higher = less sensitive (higher viability); settings: exposure time: 120 h; concentration range: 0.1 nM - 10 µM, 6 doses
I'd appreciate it if you could supply area under the viability dose-response curve values for the items below.

Give its area under the viability dose-response curve value. Item: O=C(Nc1cnn2ccc(N3CCC[C@@H]3c3cc(F)ccc3F)nc12)N1CC[C@H](O)C1
> 500

Give its area under the viability dose-response curve value. Item: CN1CC[C@@H](NC(=O)Nc2ccc(C#N)cc2)C[C@@H]1c1nc2ccccc2[nH]1
> 500

Give its area under the viability dose-response curve value. Item: CS(=O)(=O)OCCCCOS(C)(=O)=O
> 500

###

system: 13F2; experiment: area under the viability dose-response curve (AUC) (AUC (arbitrary units, max 500 = no viability loss)); higher = less sensitive (higher viability); conditions: exposure time: 120 h; concentration range: 0.1 nM - 10 µM, 6 doses
readout-label: area under the viability dose-response curve

Give its area under the viability dose-response curve value. Item: C[C@@H](Oc1cc(-c2cnn(C3CCNCC3)c2)cnc1N)c1c(Cl)ccc(F)c1Cl
398

Give its area under the viability dose-response curve value. Item: CNCc1ccc(-c2cc(-c3nc(-c4ccc(S(=O)(=O)C(C)C)cc4)cnc3N)on2)cc1
401

Give its area under the viability dose-response curve value. Item: Nc1ncn([C@H]2C[C@H](O)[C@@H](CO)O2)c(=O)n1
392
